# ASSAY PROTOCOL: Pharmacokinetics in dogs
# Assay type: in vivo
# TEST CONDITIONS: male, Beagle, dog, plasma, sc, s.c. (1 mg/kg), read-out: MRTINF_obs
REPORTED METRIC: MRT inf (h)
# value in h; strip the unit string

[
  {
    "MOLECULE": "O=C(NCc1ccccc1)C(=O)[C@H](C[C@@H]1CCCNC1=O)NC(=O)[C@H](CC1CCCCC1)NC(=O)c1cc2ccccc2o1 [14b]",
    "ASSAY VALUE": 4.69
  }
]

Noted for O=C(NCc1ccccc1)C(=O)[C@H](C[C@@H]1CCCNC1=O)NC(=O)[C@H](Cc1ccc(F)cc1)NC(=O)c1cc2ccccc2o1 [14a] : its MRT inf reads 5.14

---

Listed here: items and their measured half-life.
# ASSAY PROTOCOL: Pharmacokinetics in rats
# Assay type: in vivo
# TEST CONDITIONS: male, SD, rat, plasma, iv, i.v. (5 mg/kg)
I only need the number, in h, no unit after it.

[
  {
    "COMPOUND": "O=C(NCc1ccccc1)C(=O)[C@H](C[C@@H]1CCCNC1=O)NC(=O)[C@H](Cc1ccc(F)cc1)NC(=O)c1cc2ccccc2o1 [14a]",
    "VALUE UNITS": "h",
    "ASSAY VALUE": 6
  }
]

The recorded half-life for entry O=C(NCc1ccccc1)C(=O)[C@H](C[C@@H]1CCCNC1=O)NC(=O)[C@H](CC1CCCCC1)NC(=O)c1cc2ccccc2o1 [14b] equals 5.11

---

# ASSAY PROTOCOL: Pharmacokinetics in mice
# Format: in vivo
# TEST CONDITIONS: CD-1, mouse, plasma, po, 14b, p.o. (20 mg/kg)
REPORTED METRIC: bioavailability (%)
Record the value in %, omitting the unit from your answer.

Lab note: measured bioavailability of O=C(NCc1ccccc1)C(=O)[C@H](C[C@@H]1CCCNC1=O)NC(=O)[C@H](CC1CCCCC1)NC(=O)c1cc2ccccc2o1 [14b] was 8

---

# System: SARS-CoV PsV
# ASSAY PROTOCOL: microbe, parasite or virus in culture
# Type: cell-based
# TEST CONDITIONS: Severe acute respiratory syndrome coronavirus, Huh-7, read-out: EC50, SARS-CoV PsV
Below, each of the molecules is paired with its reported pEC50 value.
Lab note: report pEC50 as minus log10 of the concentration in molar units, number only.

[
  {
    "MOLECULE": "O=C(NCc1ccccc1)C(=O)[C@H](C[C@@H]1CCCNC1=O)NC(=O)[C@H](Cc1ccc(F)cc1)NC(=O)c1cc2ccccc2o1 [14a]",
    "pEC50": 8.08
  }
]

Consider the additional molecule presented here.
Hey, SARS-CoV PsV data for O=C(NCc1ccccc1)C(=O)[C@H](C[C@@H]1CCCNC1=O)NC(=O)[C@H](CC1CCCCC1)NC(=O)c1cc2ccccc2o1 [14b] : pEC50 came out at 8.00

---

# ASSAY PROTOCOL: Pharmacokinetics in mice
# Assay type: in vivo
# TEST CONDITIONS: male, ICR, mouse, plasma, po, 14a, p.o. (10 mg/kg), read-out: AUCINF_obs
REPORTED METRIC: AUC(0-inf) (ng·h/mL)
I only need the number, in ng·h/mL, no unit after it.

Recorded result, O=C(NCc1ccccc1)C(=O)[C@H](C[C@@H]1CCCNC1=O)NC(=O)[C@H](Cc1ccc(F)cc1)NC(=O)c1cc2ccccc2o1 [14a] , AUC(0-inf): 126

---

# ASSAY PROTOCOL: Pharmacokinetics in mice
# Type: in vivo
# TEST CONDITIONS: male, ICR, mouse, plasma, po, 14a, p.o. (10 mg/kg)
REPORTED METRIC: AUC(0-t)
Remember to quote the unit after the number.

Recorded result, O=C(NCc1ccccc1)C(=O)[C@H](C[C@@H]1CCCNC1=O)NC(=O)[C@H](Cc1ccc(F)cc1)NC(=O)c1cc2ccccc2o1 [14a] , AUC(0-t): 125 ng·h/mL

---

Listing: half-life of selected molecules
# ASSAY PROTOCOL: Pharmacokinetics in dogs
# Assay type: in vivo
# TEST CONDITIONS: male, Beagle, dog, plasma, po, p.o. (5 mg/kg)
Give the figure together with its unit, number first.

[
  {
    "MOLECULE": "O=C(NCc1ccccc1)C(=O)[C@H](C[C@@H]1CCCNC1=O)NC(=O)[C@H](CC1CCCCC1)NC(=O)c1cc2ccccc2o1 [14b]",
    "REPORTED METRIC": "half-life",
    "ASSAY VALUE": "2 h"
  }
]

Record summary for O=C(NCc1ccccc1)C(=O)[C@H](C[C@@H]1CCCNC1=O)NC(=O)[C@H](Cc1ccc(F)cc1)NC(=O)c1cc2ccccc2o1 [14a] : reported half-life = 1.33 h

---

# ASSAY PROTOCOL: Pharmacokinetics in mice
# Type: in vivo
# TEST CONDITIONS: male, ICR, mouse, plasma, ip, 14a, i.p. (5 mg/kg), read-out: AUCINF_obs
REPORTED METRIC: AUC(0-inf) (ng·h/mL)
Field: numeric (ng·h/mL). Do not append units.

Lab note: O=C(NCc1ccccc1)C(=O)[C@H](C[C@@H]1CCCNC1=O)NC(=O)[C@H](Cc1ccc(F)cc1)NC(=O)c1cc2ccccc2o1 [14a] gave AUC(0-inf) of 1270

---

# ASSAY PROTOCOL: Pharmacokinetics in mice
# Type: in vivo
# TEST CONDITIONS: CD-1, mouse, plasma, po, 14b, p.o. (20 mg/kg)
REPORTED METRIC: half-life (h)
Provide only the numeric value, understood in h.

// recorded half-life for O=C(NCc1ccccc1)C(=O)[C@H](C[C@@H]1CCCNC1=O)NC(=O)[C@H](CC1CCCCC1)NC(=O)c1cc2ccccc2o1 [14b] : 1.32

---

# TEST TARGET: SARS-CoV-2 RdRp (Severe acute respiratory syndrome coronavirus 2, UniProt P0DTD1)
Quick list: IC50 per entry.
Write the number in µM without appending the unit.

[
  {
    "MOLECULE": "O=C(NCc1ccccc1)C(=O)[C@H](C[C@@H]1CCCNC1=O)NC(=O)[C@H](CC1CCCCC1)NC(=O)c1cc2ccccc2o1 [14b]",
    "VALUE UNITS": "µM",
    "IC50": 3.21
  }
]

IC50 in this record for O=C(NCc1ccccc1)C(=O)[C@H](C[C@@H]1CCCNC1=O)NC(=O)[C@H](Cc1ccc(F)cc1)NC(=O)c1cc2ccccc2o1 [14a] : 8.02

---

bioavailability values, listed per item
# ASSAY PROTOCOL: Pharmacokinetics in rats
# Format: in vivo
# TEST CONDITIONS: male, SD, rat, plasma, ip, i.p. (5 mg/kg)
Reply with just the number (in %).

[
  {
    "COMPOUND": "O=C(NCc1ccccc1)C(=O)[C@H](C[C@@H]1CCCNC1=O)NC(=O)[C@H](CC1CCCCC1)NC(=O)c1cc2ccccc2o1 [14b]",
    "ASSAY VALUE": 249
  }
]

Notebook: O=C(NCc1ccccc1)C(=O)[C@H](C[C@@H]1CCCNC1=O)NC(=O)[C@H](Cc1ccc(F)cc1)NC(=O)c1cc2ccccc2o1 [14a] , bioavailability read as 115

---

# ASSAY PROTOCOL: Pharmacokinetics in mice
# Format: in vivo
# TEST CONDITIONS: male, ICR, mouse, plasma, ip, 14a, i.p. (5 mg/kg), read-out: MRTINF_obs
REPORTED METRIC: MRT inf (h)
The reply should contain only the number, in h.

// recorded MRT inf for O=C(NCc1ccccc1)C(=O)[C@H](C[C@@H]1CCCNC1=O)NC(=O)[C@H](Cc1ccc(F)cc1)NC(=O)c1cc2ccccc2o1 [14a] : 1.82

---

Recorded Tmax, one value per entry.
# ASSAY PROTOCOL: Pharmacokinetics in dogs
# Type: in vivo
# TEST CONDITIONS: male, Beagle, dog, plasma, po, p.o. (5 mg/kg)
Field: numeric (min). Do not append units.

[
  {
    "COMPOUND": "O=C(NCc1ccccc1)C(=O)[C@H](C[C@@H]1CCCNC1=O)NC(=O)[C@H](CC1CCCCC1)NC(=O)c1cc2ccccc2o1 [14b]",
    "REPORTED METRIC": "Tmax",
    "ASSAY VALUE": 34.8
  }
]

Turning to the following compound.
In plain terms, O=C(NCc1ccccc1)C(=O)[C@H](C[C@@H]1CCCNC1=O)NC(=O)[C@H](Cc1ccc(F)cc1)NC(=O)c1cc2ccccc2o1 [14a] has a documented Tmax of 45

---

# TEST TARGET: Human CTSX (Homo sapiens, UniProt Q9UBR2)
# Sequence (Q9UBR2 62-303): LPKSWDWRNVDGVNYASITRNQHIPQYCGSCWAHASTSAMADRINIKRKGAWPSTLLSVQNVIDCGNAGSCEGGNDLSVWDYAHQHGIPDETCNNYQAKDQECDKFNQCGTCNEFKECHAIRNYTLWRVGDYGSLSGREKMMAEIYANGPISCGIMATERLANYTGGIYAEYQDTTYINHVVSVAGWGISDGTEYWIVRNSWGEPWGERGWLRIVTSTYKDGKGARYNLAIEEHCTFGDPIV
# ASSAY PROTOCOL: biochemical
REPORTED METRIC: pIC50
Quick note: pIC50 values are minus log10 of concentrations in mol/L.

Field pIC50 (entry O=C(NCc1ccccc1)C(=O)[C@H](C[C@@H]1CCCNC1=O)NC(=O)[C@H](Cc1ccc(F)cc1)NC(=O)c1cc2ccccc2o1 [14a] ) reads 6.14
